Origin of the recorded values: patent US20230265151A1

# system_tested: T1, human glucose-dependent insulinotropic polypeptide (GIP) receptor (human, UniProt P48546 22-466)
# T1 sequence (looked up): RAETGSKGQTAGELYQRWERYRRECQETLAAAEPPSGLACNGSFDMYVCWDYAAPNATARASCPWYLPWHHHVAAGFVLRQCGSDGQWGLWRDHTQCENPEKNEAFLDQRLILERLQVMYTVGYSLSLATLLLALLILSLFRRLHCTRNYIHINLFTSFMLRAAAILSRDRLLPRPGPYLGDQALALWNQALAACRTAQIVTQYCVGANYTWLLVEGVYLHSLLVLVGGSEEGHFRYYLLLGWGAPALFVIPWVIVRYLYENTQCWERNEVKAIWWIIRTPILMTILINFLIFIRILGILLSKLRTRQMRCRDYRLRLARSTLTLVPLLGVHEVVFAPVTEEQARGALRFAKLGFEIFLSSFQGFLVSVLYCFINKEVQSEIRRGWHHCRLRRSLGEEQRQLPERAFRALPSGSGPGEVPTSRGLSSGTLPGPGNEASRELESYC
# protocol_text: cell-based or functional assay
Some binders, each annotated with its measured cAMP EC50.
Entry rule: numbers only, all in pM.

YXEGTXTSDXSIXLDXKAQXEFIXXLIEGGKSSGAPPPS (Aib2, αMeF6, 4Pal10, αMeL13, Orn16, K17(Z), Aib20, D-Glu24, αMeY25, K31(Z), C-terminal NH2; Z = AEEA2-(γ-Glu)-CO-(CH2)10-CH3) [Example 172] = 14.9
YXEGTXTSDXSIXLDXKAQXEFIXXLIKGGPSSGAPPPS (Aib2, αMeF(2F)6, 2Nal10, αMeL13, Orn16, K17(Z), Aib20, D-Glu24, αMeY25, K28(Z), C-terminal NH2; Z = AEEA2-CO-(CH2)12-CO2H) [Example 256] = 17.5

Please look at the following binder next.
If you can, please state the reported cAMP EC50 value of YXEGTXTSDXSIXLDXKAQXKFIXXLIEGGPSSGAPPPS (Aib2, αMeF(2F)6, OMeY10, αMeL13, Orn16, K17(Z), Aib20, K21(Z), D-Glu24, αMeY25, C-terminal NH2; Z = AEEA2-(γ-Glu)-(10-(4-carboxyphenoxy)decanoyl)) [Example 277] . 17.6
